Numbers sourced from ChEMBL document CHEMBL1201862.

# test.method.notes: cells
# Assay type: functional, cell-based
Active and inactive are the calls of the source.
Field: EC50. Provide a value for each of the compounds that follow.

Some compounds with known EC50 results, for comparison:
COc1ccc(N2C(=O)[C@@H]3C(c4cccnc4)=NO[C@@H]3C2=O)cc1 : > 350 µM (not active)
Cc1snc(SCC(=O)NN=C(N)COc2cccc(C(F)(F)F)c2)c1C#N : > 350 µM (not active)
Cc1ccc(C)c(-n2nnnc2Sc2nnnn2-c2ccccc2)c1 : > 350 µM (not active)
CCc1ccc(NC(=O)CSc2ccc(-c3ccccn3)nn2)cc1 : > 350 µM (not active)

Okay, next one:
Prompt: Tell me the measured EC50 of "Cc1ccc2nc(-c3ccc(O)c(O)c3)cn2c1" , please.
Response: 5.03 µM (active)

====

# test.method.notes: growth suppression of beta-catenin-knockout colon cells, dose response, cell-based, HCT116, human colon tumor (AID 1045);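 also: HCT116 colon tumor cells with beta catenin knocked out; cells exposed to compound for 60 hours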
# Format: functional
Activity calls are given as the source filed them.
endpoint.name: EC50

List reported EC50 for each of these compounds:
1. CCCCCCCC(=O)Nc1ccc(C(=O)N/N=C/c2cccc([N+](=O)[O-])c2)cc1
2. COc1cc(CNCCc2c[nH]c3ccccc23)ccc1OCc1ccccc1F
3. CCCSc1nc(O)c2cnn(-c3ccc(C)cc3)c2n1
4. CCn1c(CC(=O)Nc2ccc(C)c(Cl)c2)nnc1SCC(=O)Nc1nc(C)cs1
5. Cc1ccc(C)c(NS(=O)(=O)c2ccc3c(c2)Cc2cc(S(=O)(=O)Nc4cc(C)ccc4C)ccc2-3)c1
6. Cn1cc(C(=O)NCCN2CCN(c3cccc(Cl)c3)CC2)c2c3ccccc3n(C)c2c1=O

Response:
1. 2.55 µM (active)
2. 13.6 µM (active)
3. 20.7 µM (active)
4. 27.2 µM (active)
5. 11.2 µM (active)
6. 63 µM (active)

====

# measurement.target: Rac GTPase-activating protein 1 (Homo sapiens, UniProt Q9H0H5)
# Sequence (Q9H0H5 whole entry): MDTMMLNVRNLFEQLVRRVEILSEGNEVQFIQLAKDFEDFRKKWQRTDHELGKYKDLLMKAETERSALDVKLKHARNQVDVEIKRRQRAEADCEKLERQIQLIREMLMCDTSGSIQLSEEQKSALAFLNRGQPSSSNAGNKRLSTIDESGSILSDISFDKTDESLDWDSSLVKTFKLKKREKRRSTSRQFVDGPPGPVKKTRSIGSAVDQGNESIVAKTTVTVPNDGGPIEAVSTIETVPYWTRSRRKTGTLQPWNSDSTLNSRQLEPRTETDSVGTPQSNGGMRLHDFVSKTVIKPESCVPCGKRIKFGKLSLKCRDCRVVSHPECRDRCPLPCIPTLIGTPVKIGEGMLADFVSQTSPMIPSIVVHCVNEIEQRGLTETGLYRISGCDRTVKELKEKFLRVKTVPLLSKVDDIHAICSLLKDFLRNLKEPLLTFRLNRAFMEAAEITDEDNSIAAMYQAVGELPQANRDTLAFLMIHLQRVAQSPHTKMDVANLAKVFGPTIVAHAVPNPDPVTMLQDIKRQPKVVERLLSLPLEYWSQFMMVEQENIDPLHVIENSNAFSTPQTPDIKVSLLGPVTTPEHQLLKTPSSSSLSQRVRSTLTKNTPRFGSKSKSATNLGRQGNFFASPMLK
# test.method.notes: MgcRacGAP GTPase-activating activity inhibitors, confirmation, biochemical, ADP Hunter fluorescence, primary and confirmatory (AID 624330)
# Type: functional
Active and inactive are the calls of the source.
endpoint.name: IC50

Some compounds with known IC50 results, for comparison:
Cc1cccc(NC(=O)CCC(=O)N/N=C/c2ccc(O)cc2O)c1 : 62.8 µM (active)
Cc1ccc(-n2c(=S)[nH]c3sc4c(c3c2=O)CCC4)cc1 : 85.6 µM (active)

List reported IC50 for each of these compounds:
1. COc1cc(/C=N/NC(=O)C(=O)Nc2ccccn2)ccc1O
2. CCN(CC)c1ccc(S(=O)(=O)N2CCOCC2)cc1NC(=O)COC(=O)/C=C/c1ccc(O)c(OC)c1
3. CCCCn1c(S)nc2c(=O)n(C)c(=O)n(C)c21
4. COc1ccc(-n2c(/C=C/c3ccc(O)c(OC)c3)nc3ccccc3c2=O)cc1
5. COc1ccccc1N1CCN(CCCOc2ccc(F)cc2)CC1
6. CC1=NNC(=O)C1Br (stereo unspecified)
7. CN1C=CC(=CC=C2C=CC(=O)C=C2)C=C1

Response:
1. 22.6 µM (active)
2. 108 µM (active)
3. 20.9 µM (active)
4. 52.4 µM (active)
5. 122 µM (active)
6. 55.9 µM (active)
7. 18.4 µM (active)

List reported IC50 for each of these compounds:
1. COc1ccc2nc(C)cc(N/N=C/c3cccc(OC)c3O)c2c1
2. COc1ccc(NC2CCCN(C(=O)CCC3=NNC(=O)CC3)C2)cc1 (stereo unspecified)

Response:
1. 51.8 µM (active)
2. 126 µM (active)

====

Field: AC50. Provide a value for each of the compounds that follow.
# measurement.target: UniProtKB P08684
# Sequence (P08684 whole entry): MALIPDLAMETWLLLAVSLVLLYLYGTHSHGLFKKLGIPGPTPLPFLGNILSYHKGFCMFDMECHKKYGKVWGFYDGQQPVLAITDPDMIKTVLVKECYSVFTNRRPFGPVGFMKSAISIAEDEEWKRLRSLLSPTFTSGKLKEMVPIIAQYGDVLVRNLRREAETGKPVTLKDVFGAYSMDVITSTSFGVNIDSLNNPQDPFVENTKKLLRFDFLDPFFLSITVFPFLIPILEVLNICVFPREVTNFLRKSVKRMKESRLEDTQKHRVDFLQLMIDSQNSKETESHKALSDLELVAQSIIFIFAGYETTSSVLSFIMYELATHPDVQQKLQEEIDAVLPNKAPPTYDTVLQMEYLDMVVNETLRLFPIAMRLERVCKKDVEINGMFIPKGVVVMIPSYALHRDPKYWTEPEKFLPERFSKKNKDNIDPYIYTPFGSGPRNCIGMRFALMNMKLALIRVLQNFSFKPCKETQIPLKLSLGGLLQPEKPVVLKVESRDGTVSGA
# experimental.parameters: Potency

Some compounds with known AC50 results, for comparison:
O=C1NC(=O)C(c2ccccc2[N+](=O)[O-])=C1Nc1ccc(O)c(Cl)c1 : 12.6 µM (inconclusive)
CCCCNC(=O)C(c1ccc(OCC(=O)OC)c(C(=O)OC)c1)N(CCOC)C(=O)CCCCCN1C(=O)NC(c2ccc(-c3ccccc3)cc2)C(C(=O)OCc2ccccc2)=C1C (stereo unspecified) : 3.16 µM (inconclusive)
CCC1=C2CC[C@H]3C(=O)NC(=O)[C@H]3[C@H]2[C@@]2(Cc3ccccc3)/C(=N/CC(=O)OC)OC(=O)N2C1=O : 15.8 µM (inconclusive)
Cc1nc(/N=N\c2ccc(C(=O)O)cc2)c(COP(=O)(O)O)c(C=O)c1O : 10 µM (inconclusive)
COc1c(CC(=O)c2cc3c(cc2O)OC(C)(C)C(O)C3)ccc2c1C=CC(C)(C)O2 (stereo unspecified) [DIHYDROMUNDULETONE] : 25.1 µM (inconclusive)

Okay, next one:
Prompt: Kindly state the measured AC50 obtained for CC(=O)N1CC=CC1(C)C(=O)O (stereo unspecified) with UniProtKB P08684.
Response: 20 µM (inconclusive)

====

# measurement.target: Replicative DNA helicase DnaB (Mycobacterium tuberculosis, UniProt P9WMR3)
# test.method.notes: DnaB intein splicing inhibitors, dose response, biochemical, cell-free fluorescence (AID 449749)
# Assay type: functional
Calls of active or inactive are those of the source.
Field: AC50. Provide a value for each of the compounds that follow.

Cc1cc(=O)n(-c2ccc(O)cc2)[nH]1 : 2.3 µM (active)

List reported AC50 for each of these compounds:
1. COc1cc2c(cc1OC)-c1c3c(cc4c1[C@@H](C2)N(C)CC4)OCO3
2. CCCCC(O)(CCCC)C(=O)NN(C(=O)CCl)c1ccccc1
3. CC(C)c1nnc(NC(=O)c2nc(S(=O)(=O)Cc3ccccc3F)ncc2Cl)s1
4. CCn1nc(C)c(C2C(C#N)=C(N)Oc3[nH]nc(C)c32)c1C (stereo unspecified)
5. CCCCCCCCCCOC(=O)C[n+]1c(COc2ccccc2OC)n(C)c2ccccc21

Response:
1: 26.7 µM (active); 2: 15 µM (active); 3: 4.25 µM (active); 4: 88.9 µM (active); 5: 3.92 µM (active)

====

# Test system: INS1
# test.method.notes: beta cell apoptosis inhibitors, cytokine rescue, dose response, luminescence, retest (AID 449756);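 also: cell death triggered by IL-1 beta plus TNF-alpha plus IFN-gamma mixture; protective hits raise ATP signal compared with cytokine alone wells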
# Type: functional, cell-based
# experimental.parameters: Rattus norvegicus
Activity calls are given as the source filed them.
Parameter call: string, one of yes (1) (active), no (0) (inactive)

O=C(Cn1ncc(Cl)c(Cl)c1=O)c1ccc2c(c1)OCCO2 : no (0)
CCOc1cc(C)c(S(=O)(=O)Nc2ccc3c[nH]nc3c2)cc1C : yes (1)
N#Cc1c([N+](=O)[O-])cc([N+](=O)[O-])cc1S(=O)(=O)Cc1ccccc1 : yes (1)

Next:
Prompt: Please indicate how the test categorized "C[n+]1c2n(c3ccccc31)N=C(c1ccc(Cl)cc1)CS2" .
Response: yes (1)

====

# measurement.target: Corticotropin-releasing factor receptor 2/Corticotropin-releasing factor-binding protein (Homo sapiens, UniProt P24387+Q13324)
# Sequence (Q13324 whole entry): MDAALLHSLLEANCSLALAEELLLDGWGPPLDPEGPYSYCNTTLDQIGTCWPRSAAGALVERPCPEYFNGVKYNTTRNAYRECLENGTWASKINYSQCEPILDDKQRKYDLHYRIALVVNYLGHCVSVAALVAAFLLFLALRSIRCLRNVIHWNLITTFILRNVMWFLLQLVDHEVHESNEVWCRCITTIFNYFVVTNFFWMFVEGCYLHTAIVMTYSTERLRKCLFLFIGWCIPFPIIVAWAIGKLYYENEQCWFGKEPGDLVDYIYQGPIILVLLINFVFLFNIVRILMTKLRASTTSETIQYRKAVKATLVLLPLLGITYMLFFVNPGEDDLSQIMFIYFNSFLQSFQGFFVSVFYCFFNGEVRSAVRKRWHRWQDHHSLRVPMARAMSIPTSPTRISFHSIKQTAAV
# Sequence (P24387 whole entry): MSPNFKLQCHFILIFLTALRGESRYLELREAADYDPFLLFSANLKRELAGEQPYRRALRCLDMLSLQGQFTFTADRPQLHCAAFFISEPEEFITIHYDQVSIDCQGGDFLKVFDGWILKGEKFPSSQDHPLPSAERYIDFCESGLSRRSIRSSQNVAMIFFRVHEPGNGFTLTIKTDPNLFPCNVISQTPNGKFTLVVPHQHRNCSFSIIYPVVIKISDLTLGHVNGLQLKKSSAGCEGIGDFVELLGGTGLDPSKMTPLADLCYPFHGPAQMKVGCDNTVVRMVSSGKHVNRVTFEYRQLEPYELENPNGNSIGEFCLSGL
# test.method.notes: activators of CRF receptor 2 with binding protein – uHTS hits, confirmation (AID 602473)
# Assay type: functional
# experimental.parameters: read-out: EC50_Mean
Calls of active or inactive are those of the source.
Parameter call: string, one of active, inactive

See these solved cases before continuing.
O=C1Nn2c(nc3c(c2=O)CCCC3)/C1=N/Nc1cccc(Cl)c1 : inactive
COc1ccccc1N1CCN(C(c2ccc(Cl)cc2)c2nnnn2C(C)(C)C)CC1 (stereo not given) : inactive
COc1cc2c(cc1NC(=O)COC(=O)CNC(=O)c1ccccc1)oc1ccccc12 : inactive
CCOc1ccc(NC(=O)CN2C(=O)NC(C)(c3ccc(OC(F)F)cc3)C2=O)cc1 (stereo not given) : active
C=CCN(CC(=O)NCc1ccccc1)C(=O)c1csnn1 : inactive
COc1cc(OC)cc(N(C(=O)CNC(=O)c2cccs2)C(C(=O)NCC2CCCO2)c2ccc(OC)c(OC)c2)c1 (stereo not given) : inactive
O=C(NCc1cccc(Cl)c1)C1CCC(=O)N(CC2CCCCC2)C1 (stereo not given) : inactive
CCc1nnc(NC(=O)CSc2nc(SC)ns2)s1 : inactive

Prompt: Please indicate how the test categorized "COc1ccc(CCn2c(=O)c3cccnc3n(Cc3cccc([N+](=O)[O-])c3)c2=O)cc1OC" .
Response: inactive

Prompt: Please indicate how the test categorized CC(C)(C)OC(=O)NC(Cc1ccccc1)C(=O)N1CCC(C(=O)NCC(=O)Nc2ccc(F)cc2)CC1 (stereo not given) .
Response: inactive

====

Field: IC50. Provide a value for each of the compounds that follow.
# measurement.target: High affinity choline transporter 1 (Homo sapiens, UniProt Q9GZV3)
# Sequence (Q9GZV3 whole entry): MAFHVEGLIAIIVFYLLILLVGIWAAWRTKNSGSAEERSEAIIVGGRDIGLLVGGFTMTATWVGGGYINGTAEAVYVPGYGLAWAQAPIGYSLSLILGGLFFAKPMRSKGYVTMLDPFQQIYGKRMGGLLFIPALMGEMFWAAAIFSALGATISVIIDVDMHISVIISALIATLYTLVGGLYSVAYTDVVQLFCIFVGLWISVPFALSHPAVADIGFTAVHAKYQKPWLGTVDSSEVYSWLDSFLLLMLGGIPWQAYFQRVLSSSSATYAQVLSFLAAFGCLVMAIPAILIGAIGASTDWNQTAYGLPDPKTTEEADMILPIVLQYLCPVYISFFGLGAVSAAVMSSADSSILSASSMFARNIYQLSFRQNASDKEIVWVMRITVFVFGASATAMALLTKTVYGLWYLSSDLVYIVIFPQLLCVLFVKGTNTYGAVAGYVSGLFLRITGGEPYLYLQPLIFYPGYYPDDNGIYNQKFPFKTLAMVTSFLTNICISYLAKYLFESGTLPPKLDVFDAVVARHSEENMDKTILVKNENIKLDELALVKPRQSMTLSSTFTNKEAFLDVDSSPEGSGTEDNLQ
# test.method.notes: CHT inhibitors, dose response, cell-based, 5-point CRC, membrane potential dye (AID 504840)
# Assay type: functional
Active and inactive are the calls of the source.

Some compounds with known IC50 results, for comparison:
O=C(Nc1cccc(S(=O)(=O)NC2=NCCC2)c1)c1cc(Cl)ccc1[N+](=O)[O-] : 11.8 µM (active)
CCc1cc2c(NCc3ccco3)ncnc2s1 : 10 µM (active)
CCn1c2ccccc2c(=O)c2ccccc21 : 15.1 µM (active)
O=c1oc2ccccc2c(O)c1Cc1cc(Cl)c2cccnc2c1O : 15.2 µM (active)
CC(=O)OCCCCCCCCCCC[N+]1(C)CCCCC1 : 14.1 µM (active)

List reported IC50 for each of these compounds:
1. Cc1cc(C)c(NC(=O)c2ccc[n+](Cc3ccc([N+](=O)[O-])cc3)c2)c(C)c1
2. COc1ccc(C2=NN(c3nc(C(=O)O)cs3)C(O)(C(F)(F)F)C2)c(OC)c1 (centres undefined)
3. CC1CCN(S(=O)(=O)c2ccc3c(c2)c(=O)c(C(=O)NC2CCCC2)cn3C)CC1
4. CCCCc1cc(-c2nnc(S)o2)c2ccccc2n1

Response:
1: 3.67 µM (active); 2: 7.18 µM (active); 3: 12 µM (active); 4: 13.2 µM (active)
